# test-system: UniProt Q8I510
# measurement-notes: IC50 for competition of protein binding to Kinobeads;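 note: native unpurified kinases from lysate captured on beads bearing immobilized kinase inhibitors, with bead-bound kinases quantified by mass spectrometry across compound doses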
# conditions-used: assay detail: Kinobeads competition in P. falciparum blood-stage lysate
measurement-type: IC50

* O=c1[nH]c2ccc(Cl)cc2c(NC2CN3CCC2CC3)c1-c1nc2ccccc2[nH]1 (stereo unspecified) | > 20 µM

----------
# test-system: UniProt Q8II53
# measurement-notes: IC50 for competition of protein binding to Kinobeads
# conditions-used: assay detail: Kinobeads competition in P. falciparum blood-stage lysate
measurement-type: IC50

- O=c1[nH]c2ccc(Cl)cc2c(NC2CN3CCC2CC3)c1-c1nc2ccccc2[nH]1 (stereo unspecified): > 20 µM

----------
# test-system: UniProt O96210
# measurement-notes: IC50 for competition of protein binding to Kinobeads
# conditions-used: assay detail: Kinobeads competition in P. falciparum blood-stage lysate
measurement-type: IC50

* O=c1[nH]c2ccc(Cl)cc2c(NC2CN3CCC2CC3)c1-c1nc2ccccc2[nH]1 (stereo unspecified) [CHIR-124] | > 20 µM

----------
# test-system: UniProt Q8IAR3
# measurement-notes: IC50 for competition of protein binding to Kinobeads
# conditions-used: assay detail: Kinobeads competition in P. falciparum blood-stage lysate
pIC50: −log10 of the molar value.
measurement-type: pIC50

- O=c1[nH]c2ccc(Cl)cc2c(NC2CN3CCC2CC3)c1-c1nc2ccccc2[nH]1 (stereo unspecified): < 4.70

----------
# test-system: UniProt Q8IJ60
# measurement-notes: IC50 for competition of protein binding to Kinobeads
# conditions-used: assay detail: Kinobeads competition in P. falciparum blood-stage lysate
pIC50: −log10 of the molar value.
measurement-type: pIC50

* O=c1[nH]c2ccc(Cl)cc2c(NC2CN3CCC2CC3)c1-c1nc2ccccc2[nH]1 (stereo unspecified) [CHIR-124] | < 4.70

----------
# test-system: UniProt Q8I467
# Sequence (Q8I467 whole entry): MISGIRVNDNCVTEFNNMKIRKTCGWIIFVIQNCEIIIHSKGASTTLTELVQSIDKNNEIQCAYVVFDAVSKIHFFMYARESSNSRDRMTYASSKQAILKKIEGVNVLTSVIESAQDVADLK
# measurement-notes: IC50 for competition of protein binding to Kinobeads
# conditions-used: assay detail: Kinobeads competition in P. falciparum blood-stage lysate
pIC50: −log10 of the molar value.
measurement-type: pIC50

* O=c1[nH]c2ccc(Cl)cc2c(NC2CN3CCC2CC3)c1-c1nc2ccccc2[nH]1 (stereo unspecified) [CHIR-124] | < 4.70

----------
# test-system: UniProt Q8I1V2
# measurement-notes: IC50 for competition of protein binding to Kinobeads
# conditions-used: assay detail: Kinobeads competition in P. falciparum blood-stage lysate
pIC50: −log10 of the molar value.
measurement-type: pIC50

- O=c1[nH]c2ccc(Cl)cc2c(NC2CN3CCC2CC3)c1-c1nc2ccccc2[nH]1 (stereo unspecified): < 4.70

----------
# test-system: UniProt Q8ID72
# measurement-notes: IC50 for competition of protein binding to Kinobeads
# conditions-used: assay detail: Kinobeads competition in P. falciparum blood-stage lysate
measurement-type: IC50

- O=c1[nH]c2ccc(Cl)cc2c(NC2CN3CCC2CC3)c1-c1nc2ccccc2[nH]1 (stereo unspecified): > 20 µM

----------
# test-system: UniProt C0H5A0
# measurement-notes: IC50 for competition of protein binding to Kinobeads
# conditions-used: assay detail: Kinobeads competition in P. falciparum blood-stage lysate
pIC50: −log10 of the molar value.
measurement-type: pIC50

* O=c1[nH]c2ccc(Cl)cc2c(NC2CN3CCC2CC3)c1-c1nc2ccccc2[nH]1 (stereo unspecified) | < 4.70

----------
# test-system: UniProt Q8I1S0
# measurement-notes: IC50 for competition of protein binding to Kinobeads
# conditions-used: assay detail: Kinobeads competition in P. falciparum blood-stage lysate
pIC50: −log10 of the molar value.
measurement-type: pIC50

- O=c1[nH]c2ccc(Cl)cc2c(NC2CN3CCC2CC3)c1-c1nc2ccccc2[nH]1 (stereo unspecified) [CHIR-124]: < 4.70
